target: recombinant pentameric gH complex (Towne strain) (human cytomegalovirus, Towne strain) (UniProt P17176); experiment: BLI competition on His-pentamer; competitor (antibody 2): 57.4
Sequence (P17176 30-715, one chain of several): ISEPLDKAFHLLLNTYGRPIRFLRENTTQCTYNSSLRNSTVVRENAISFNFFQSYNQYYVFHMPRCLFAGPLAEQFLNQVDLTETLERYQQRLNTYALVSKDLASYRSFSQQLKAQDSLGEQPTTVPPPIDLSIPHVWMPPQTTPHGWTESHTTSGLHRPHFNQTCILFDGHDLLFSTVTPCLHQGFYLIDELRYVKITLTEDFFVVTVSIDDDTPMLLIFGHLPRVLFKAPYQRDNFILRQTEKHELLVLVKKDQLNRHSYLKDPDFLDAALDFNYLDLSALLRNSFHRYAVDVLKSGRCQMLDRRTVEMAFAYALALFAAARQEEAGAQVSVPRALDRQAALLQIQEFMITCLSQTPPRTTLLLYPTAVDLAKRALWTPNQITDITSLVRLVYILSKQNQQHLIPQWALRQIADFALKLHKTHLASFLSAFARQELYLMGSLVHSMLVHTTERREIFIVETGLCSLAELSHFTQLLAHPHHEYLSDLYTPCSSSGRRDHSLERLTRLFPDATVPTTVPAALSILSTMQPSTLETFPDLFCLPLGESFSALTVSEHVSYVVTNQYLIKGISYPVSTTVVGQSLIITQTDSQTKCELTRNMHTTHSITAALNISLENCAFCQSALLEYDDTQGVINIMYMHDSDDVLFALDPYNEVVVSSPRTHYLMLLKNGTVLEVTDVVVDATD
The entries below are paired with their reported Pair-wise inhibition (%).
A number alone suffices; assume %.

Some entries whose results are on file:
| Binder | Pair-wise inhibition (%) |
| --- | --- |
| 1-85 (antibody, V domains shown) VH: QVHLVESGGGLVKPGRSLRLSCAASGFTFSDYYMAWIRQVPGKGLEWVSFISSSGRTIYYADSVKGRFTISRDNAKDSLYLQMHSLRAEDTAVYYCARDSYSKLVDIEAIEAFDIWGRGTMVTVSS VL: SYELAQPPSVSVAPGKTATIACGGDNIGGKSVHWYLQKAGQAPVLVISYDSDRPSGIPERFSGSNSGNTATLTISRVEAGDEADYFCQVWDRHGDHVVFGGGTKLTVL | 29 |
| 2-18 (antibody, V domains shown) VH: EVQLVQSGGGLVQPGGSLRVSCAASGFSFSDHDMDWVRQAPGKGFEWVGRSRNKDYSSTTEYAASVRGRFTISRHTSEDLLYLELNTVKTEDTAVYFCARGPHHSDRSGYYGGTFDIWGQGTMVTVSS VL: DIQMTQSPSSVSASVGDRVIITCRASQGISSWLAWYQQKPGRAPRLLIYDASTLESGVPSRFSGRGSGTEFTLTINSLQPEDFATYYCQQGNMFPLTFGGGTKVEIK | 8 |

Please give the measured Pair-wise inhibition (%) for this binder: 3-16 (antibody, V domains shown) VH: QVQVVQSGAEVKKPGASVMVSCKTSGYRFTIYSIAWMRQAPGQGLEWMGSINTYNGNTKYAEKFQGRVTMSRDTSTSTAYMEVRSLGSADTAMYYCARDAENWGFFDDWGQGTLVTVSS VL: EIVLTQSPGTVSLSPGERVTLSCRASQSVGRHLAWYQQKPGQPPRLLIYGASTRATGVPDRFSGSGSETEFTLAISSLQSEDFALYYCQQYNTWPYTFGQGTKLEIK 11

All figures here come from patent US11230591.
